B1: ZMYND11 (parent)
chain: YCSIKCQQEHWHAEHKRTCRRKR

# Variants of: B1
# method notes: protein stability index of a GFP-peptide fusion (GPS, HEK-293T) (PSI 1-6); higher = more stable;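 further: lentivirally expressed fusions sorted by FACS into six bins by GFP to DsRed ratio, PSI derived from sequencing read proportions per bin multiplied by bin number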
# condition set: c terminus: native

change: R21L
protein stability index: 2.2

change: C6G
protein stability index: 2.74

change: R20A
protein stability index: 2.33

change: E14H
protein stability index: 2.53

change: R23A
protein stability index: 2.28

change: R17F
protein stability index: 1.8

change: Q8G
protein stability index: 2.47

change: E9V
protein stability index: 2.93

change: K5C
protein stability index: 3.25

change: E9C
protein stability index: 3.31

change: R17D
protein stability index: 2.63

change: K5N
protein stability index: 2.53

change: K22P
protein stability index: 1.94

change: C19A
protein stability index: 2.84

change: K22I
protein stability index: 2.37

change: C6W
protein stability index: 1.77

change: H12C
protein stability index: 2.09

change: T18M
protein stability index: 1.91

change: C6T
protein stability index: 1.87

change: H12K
protein stability index: 2.42

change: R17A
protein stability index: 2.61

change: H12P
protein stability index: 2.64
